B1: glmS ribozyme (parent)
chain: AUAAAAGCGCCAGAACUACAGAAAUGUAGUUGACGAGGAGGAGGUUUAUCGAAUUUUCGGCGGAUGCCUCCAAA

Variants of: B1
Assay: self-cleavage kobs at 2500 uM GlcN6P; higher = faster cleavage; RNA array
Details: with glucosamine-6-phosphate
Variants at the floor of the assay were thinned out.
self-cleavage kobs at 2500 uM GlcN6P values by entry
The reply should contain only the number, in s⁻¹.

[
  {
    "Sequence change": "G66U C68U",
    "Numeric readout": 0.000226
  }
]

Continue with the variant presented below.
# self-cleavage kobs at 2500 uM GlcN6P (variant: A6G G43C C68G ) is 0.000399
